- MEASURED_TARGET: purified recombinantly expressed human SSAO (Homo sapiens (Human))
- Sequence (Q16853 29-763): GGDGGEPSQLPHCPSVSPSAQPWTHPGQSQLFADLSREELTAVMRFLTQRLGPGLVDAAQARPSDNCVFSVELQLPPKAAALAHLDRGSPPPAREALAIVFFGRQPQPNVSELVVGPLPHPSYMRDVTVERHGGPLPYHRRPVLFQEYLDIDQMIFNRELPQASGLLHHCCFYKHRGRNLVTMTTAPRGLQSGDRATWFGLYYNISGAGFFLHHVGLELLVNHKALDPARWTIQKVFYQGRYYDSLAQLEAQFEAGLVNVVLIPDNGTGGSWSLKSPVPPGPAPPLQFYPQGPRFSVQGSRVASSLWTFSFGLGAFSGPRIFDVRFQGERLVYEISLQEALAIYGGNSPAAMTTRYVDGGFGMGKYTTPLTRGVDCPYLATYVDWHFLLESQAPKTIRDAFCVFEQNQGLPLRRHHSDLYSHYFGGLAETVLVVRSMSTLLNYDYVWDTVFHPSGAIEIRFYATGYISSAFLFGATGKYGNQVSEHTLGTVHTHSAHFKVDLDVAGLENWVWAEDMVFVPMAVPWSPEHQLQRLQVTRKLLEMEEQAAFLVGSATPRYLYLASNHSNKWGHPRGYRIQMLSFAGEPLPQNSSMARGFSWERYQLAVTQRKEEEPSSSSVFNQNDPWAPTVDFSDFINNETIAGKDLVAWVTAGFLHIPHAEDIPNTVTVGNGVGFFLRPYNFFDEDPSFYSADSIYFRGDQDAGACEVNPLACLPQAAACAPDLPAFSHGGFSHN
- EXPERIMENTAL_PROTOCOL: SSAO enzyme inhibition assay (HRP-coupled hydrogen peroxide detection or 14C-benzaldehyde detection, benzylamine substrate)
- MEASUREMENT_PARAMETERS: SSAO inhibitory activity, human recombinant SSAO, RT
- Method: All primary assays were performed at RT. with purified recombinantly expressed human SSAO. Enzyme was prepared essentially as described in Öhman et al. (Protein Expression and Purification 46 (2006) 321-331). […] SSAO activity was assayed using 14C-labeled benzylamine and analysed by measuring radioactive benzaldehyde. […] Phase separation occurred instantly and activity was read in a Topcount scintillation counter (Perkin-Elmer). […] Data was analysed as above.
pIC50: −log10 of the molar value.
REPORTED_ENDPOINT: pIC50

| MOLECULE | MEASURED_TARGET | OBSERVED_MEASUREMENT |
| --- | --- | --- |
| CC(=O)NC1CCN(c2ccc(-c3nc4ccncc4n3-c3ccc(Cl)cc3)cn2)CC1 [Example 85] | purified recombinantly expressed human SSAO (Homo sapiens (Human)) | > 7.30 |
| Fc1ccc(-n2c(-c3cnc(N4CCOCC4)nc3)nc3ccncc32)cc1 [Example 52] | purified recombinantly expressed human SSAO (Homo sapiens (Human)) | > 7.30 |
| Clc1ccc(-n2c(-c3cnccn3)cc3ccncc32)cc1 [Example 124] | purified recombinantly expressed human SSAO (Homo sapiens (Human)) | > 7.30 |
| Clc1ccc(-n2c(-c3ccc(N4CCOCC4)nc3)nc3ccncc32)nc1 [Example 81] | purified recombinantly expressed human SSAO (Homo sapiens (Human)) | > 7.30 |
| Clc1ccc(-n2c(-c3cnc(NCC4CC4)nc3)cc3ccncc32)cc1 [Example 149] | purified recombinantly expressed human SSAO (Homo sapiens (Human)) | > 7.30 |
| Clc1ccc(-n2c(-c3ccc(CN4CCOCC4)cc3)nc3ccncc32)cc1 [Example 49] | purified recombinantly expressed human SSAO (Homo sapiens (Human)) | > 7.30 |
| COCCCNc1ncc(-c2nc3ccncc3n2-c2ccc(C)cc2)cn1 [Example 37] | purified recombinantly expressed human SSAO (Homo sapiens (Human)) | > 7.30 |
| Cc1cc(N2CCOCC2)ncc1-c1nc2ccncc2n1-c1ccc(Cl)cc1F [Example 22] | purified recombinantly expressed human SSAO (Homo sapiens (Human)) | > 7.30 |
| Nc1cc(-c2cc3ccncc3n2-c2ccc(Cl)cc2)ccn1 [Example 147] | purified recombinantly expressed human SSAO (Homo sapiens (Human)) | > 7.30 |

Source: patent US9951068B2
